assay: differential killing of epithelial or mesenchymal cells, primary screen, imaging, PC-3E GFP, TEM4-18 mCherry, co-culture (AID 1345086); settings: imaging cell counts, at 1 µM, actives lie on both sides;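 also: normalised mesenchymal count divided by normalised epithelial count so high means epithelial killing; cells exposed to compound for 72 h before imaging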
Activity calls are given as the source filed them.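 The calls were made as follows: active = compounds killing one labelled cell type while sparing the other, by normalised counts and ratio limits, not self-fluorescent; inactive = the rest.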
Measured red/green cell ratio (normalised) by item
quantity-measured: red/green cell ratio (normalised)

[
  {
    "molecule": "CC[C@H](c1cccc(O)c1)[C@@H](C)CN(C)C",
    "quantity-measured": "red/green cell ratio (normalised)",
    "test-value": "0.92 (inactive)"
  },
  {
    "molecule": "COc1ccc2c(c1O)-c1c(OC)c(OC)cc3c1[C@H](C2)N(C)CC3",
    "quantity-measured": "red/green cell ratio (normalised)",
    "test-value": "1.1 (inactive)"
  },
  {
    "molecule": "O1[As]2O[As]3O[As]1O[As](O2)O3",
    "quantity-measured": "red/green cell ratio (normalised)",
    "test-value": "0.77 (inactive)"
  },
  {
    "molecule": "O=C(O)CCCc1ccc(N(CCCl)CCCl)cc1",
    "quantity-measured": "red/green cell ratio (normalised)",
    "test-value": "0.75 (inactive)"
  },
  {
    "molecule": "NCC(CC(=O)O)c1ccc(Cl)cc1 (configuration not stated)",
    "quantity-measured": "red/green cell ratio (normalised)",
    "test-value": "0.69 (inactive)"
  },
  {
    "molecule": "C=C(C)C1Cc2c(ccc3c(=O)c4c(oc23)COc2cc(OC)c(OC)cc2-4)O1 (configuration not stated)",
    "quantity-measured": "red/green cell ratio (normalised)",
    "test-value": "0.91 (inactive)"
  },
  {
    "molecule": "C[C@]12CCC(=O)C=C1C=CC1C2CC[C@@]2(C)C1CC[C@@]2(O)CCC(=O)O (some centres not stated)",
    "quantity-measured": "red/green cell ratio (normalised)",
    "test-value": "1.24 (inactive)"
  },
  {
    "molecule": "CC(O)CN1CCN(CC(=O)[O-])CCN(CC(=O)[O-])CCN(CC(=O)[O-])CC1.[Gd+3] (configuration not stated)",
    "quantity-measured": "red/green cell ratio (normalised)",
    "test-value": "0.9 (inactive)"
  },
  {
    "molecule": "NC(=O)c1ccc(N)nc1",
    "quantity-measured": "red/green cell ratio (normalised)",
    "test-value": "0.93 (inactive)"
  },
  {
    "molecule": "O=C(O)CCCO",
    "quantity-measured": "red/green cell ratio (normalised)",
    "test-value": "1 (inactive)"
  },
  {
    "molecule": "C[C@]12CCC(=O)C=C1CCC1C2CC[C@@]2(C)C1CC[C@@H]2O (some centres not stated)",
    "quantity-measured": "red/green cell ratio (normalised)",
    "test-value": "1.12 (inactive)"
  },
  {
    "molecule": "CC1=C2[C@H]3OC(=O)[C@@H](C)[C@@H]3CC[C@@]2(C)C=CC1=O",
    "quantity-measured": "red/green cell ratio (normalised)",
    "test-value": "0.97 (inactive)"
  }
]

----------
experiment: stimulators of nuclear beta-catenin in C2C12, primary screen, imaging, WNT3A-conditioned medium, mouse C2C12, NPC library (AID 1117326); settings: at 10 µM, stronger effect = higher value

[
  {
    "compound": "CCCCCCCCCCCCCCCC[N+](C)(C)C",
    "nuclear beta-catenin stimulation [%]": 19.2
  },
  {
    "compound": "Nc1ccccc1",
    "nuclear beta-catenin stimulation [%]": 0.6
  },
  {
    "compound": "COC(=O)C(Cl)C(=O)OC",
    "nuclear beta-catenin stimulation [%]": 0.3
  },
  {
    "compound": "Cc1ccc(N=CN(C)C=Nc2ccc(C)cc2C)c(C)c1",
    "nuclear beta-catenin stimulation [%]": 0.6
  },
  {
    "compound": "CCOC(=O)CC(SP(=S)(OC)OC)C(=O)OCC (stereo not drawn)",
    "nuclear beta-catenin stimulation [%]": 1
  },
  {
    "compound": "O=c1[nH]oc2c1CCNC2",
    "nuclear beta-catenin stimulation [%]": 0.9
  },
  {
    "compound": "c1ccc2c(c1)sc1ccccc12",
    "nuclear beta-catenin stimulation [%]": 0.1
  },
  {
    "compound": "CCOP(=S)(OCC)O/N=C(\\C#N)c1ccccc1",
    "nuclear beta-catenin stimulation [%]": -0.3
  },
  {
    "compound": "C[C@@]12CCCCC[C@@H](Cc3ccc(O)cc31)[C@H]2N",
    "nuclear beta-catenin stimulation [%]": -0.5
  },
  {
    "compound": "CC(Cc1ccc2c(c1)OCO2)NCC(O)c1ccc(O)c(O)c1 (stereo not drawn)",
    "nuclear beta-catenin stimulation [%]": 2.6
  },
  {
    "compound": "N[C@@H]1C[C@H]1c1ccccc1",
    "nuclear beta-catenin stimulation [%]": 1.6
  },
  {
    "compound": "O=[N+]([O-])c1ccc([As](=O)(O)O)cc1",
    "nuclear beta-catenin stimulation [%]": 2.2
  },
  {
    "compound": "O=c1[nH]c2ccccc2n1C1CCN(CCCC(c2ccc(F)cc2)c2ccc(F)cc2)CC1",
    "nuclear beta-catenin stimulation [%]": 7.8
  }
]
